Recorded measurements of IC50, one per entry
System: Endogenous Huntingtin Protein
Protocol Summary: Endogenous Huntingtin Protein Assay (Meso Scale Discovery ELISA-based electrochemiluminescence)
Type: cell-based
Condition Label: MSD plates coated with MW1 (expanded polyglutamine) or MAB2166 capture antibody; lysates

Past entries and their recorded results:
structure_string=Cc1cnc(-c2ccc(-c3cc4nnn(C5CC(C)(C)NC(C)(C)C5)c4nn3)c(O)c2)s1 measure=IC50 result="100 to 500 nM"
structure_string=CCNc1nc2cc(-c3ccc(-c4cn[nH]c4)cc3O)nnc2n1C1CC(C)(C)NC(C)(C)C1 measure=IC50 result="1000 to 3000 nM"
structure_string=CC1(C)CC(n2nnc3cc(-c4ccc(-c5cnn(C(F)F)c5)cc4O)nnc32)CC(C)(C)N1 measure=IC50 result="100 to 500 nM"

Next up:
Exam item: Form: Entry = Cn1cc(-c2ccc(-c3cc4nnn(C5CC(C)(C)NC(C)(C)C5)c4nn3)c(O)c2)c(Cl)n1 | System = Endogenous Huntingtin Protein | IC50 = ____
Marked response: ≤ 100 nM
